Data origin, for the record: PubChem BioAssay (Tox21)

- MEASUREMENT_PROTOCOL: qHTS assay for small molecule activators of the heat shock response signaling pathway - cell viability counter screen (AID 743209); note: nearly all actives have a fitted effect of over 50% in size
- DETAILS: HSE-bla HeLa viability, CellTiter-Glo luminescence, 5 h; series mostly up to 62.6 µM
Records with an inconclusive call do not appear. Active and inactive are the calls of the source. Calls come from the whole dose curve; as a rule, active = well fitted cell-killing curve with a large enough effect in the repeat runs; inconclusive = weak or mixed curves, or effect the other way; inactive = no such curve, though single readings can be large or run the other way.
Respond only with the outcome that fits, drawn from active, inactive

COMPOUND | CAT
C(=C\c1ccccc1)/CN1CCN(C(c2ccccc2)c2ccccc2)CC1 | inactive
C/C(=N/NC(=O)c1ccncc1)C(=O)O | inactive
CCCCN(CCCC)C(=S)SSC(=S)N(CCCC)CCCC | inactive
C=CC(=O)NCOCC(C)C | inactive
CCCCCCCCCCCC[N+](C)(C)CCCS(=O)(=O)[O-] | inactive
O=C(C(=O)c1ccccc1)c1ccccc1 | inactive
CCC(Cc1ccccc1)(C(=O)c1ccc(N2CCOCC2)cc1)N(C)C (configuration not stated) | inactive
CCC(C)(O)CCC=C(C)C (configuration not stated) | inactive
CCCCCCCC/C=C\CCCCCCCC(=O)OC(CO)CO | active
CC(C)C(=O)O | inactive

Query: Dear all, I need the recorded test outcome for CCCCC(=O)O[C@]1(C(=O)CO)[C@@H](C)C[C@H]2[C@@H]3CCC4=CC(=O)C=C[C@]4(C)[C@@]3(F)[C@@H](O)C[C@@]21C , thank you.
Reply: inactive

Query: Thanks! And C[Si]1(C)O[Si](C)(C)O[Si](C)(C)O1 ?
Reply: inactive
